Source of measurements: PubChem BioAssay AID1159580

# assayName: chemical genetic growth profiling, strain panel (AID 1159580);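 further: tested at 20 µM; growth read once vehicle control cultures reached saturation at 30 °C; 1 = growth at the plate median or of vehicle wells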
# experimentalContext: S. cerevisiae deletion strains, growth OD, locus YGL167C, strain pmr1, stronger effect = lower value
The whole screen tested about 5,500 compounds, of which about 2,000 (36%) were called active. Roughly 18% stayed inconclusive and do not appear here. This is one part of the list.
assayMetric: normalized growth
Just the number, please, no unit attached.

Exercise: Name the recorded normalized growth of the item CC1(C)CC2C1CC[C@]1(CBr)CCC3C(CC(=O)O)C(=O)O[C@@]32C1 (stereo not given in full) in your answer.
Solution: 1.01

Exercise: Name the recorded normalized growth of the item CS(=O)(=O)c1ccc([C@@H](O)[C@@H](CO)NC(=O)C(Cl)Cl)cc1 in your answer.
Solution: 1.02

Exercise: Name the recorded normalized growth of the item CC(C)(C)NCC(O)c1ccc(O)c(CO)c1 (stereo not given) in your answer.
Solution: 1.02

Exercise: Name the recorded normalized growth of the item CC(CCC(=O)O)[C@H]1CCC2C3CC[C@@H]4C[C@H](O)CC[C@]4(C)C3C=C[C@@]21C (stereo not given in full) in your answer.
Solution: 0.989

Exercise: Name the recorded normalized growth of the item CCCN(CCC)S(=O)(=O)c1ccc(C(=O)O)cc1 in your answer.
Solution: 0.991

Exercise: Name the recorded normalized growth of the item O=C(NCO)c1cccnc1 in your answer.
Solution: 1.01

Exercise: Name the recorded normalized growth of the item CC(=O)O[C@H]1CCC2(C)C3=C(CCC2C1(C)C)[C@]1(C)CCC(C(C)CCC=C(C)C)[C@@]1(C)CC3 (stereo not given in full) in your answer.
Solution: 0.99

Exercise: Name the recorded normalized growth of the item O=C(O)c1ccc(S(=O)(=O)N(Cl)Cl)cc1 in your answer.
Solution: 0.973

----------
# assayName: chemical genetic growth profiling, strain panel (AID 1159580);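 further: tested at 20 µM; growth read once vehicle control cultures reached saturation at 30 °C; 1 = growth at the plate median or of vehicle wells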
# experimentalContext: S. cerevisiae deletion strains, growth OD, locus YGR078C, strain PAC10, stronger effect = lower value
Hit rate of the full screen: of about 5,500 compounds, about 2,000 (36%) were called active. Not shown: some 18% with an inconclusive outcome. This is one part of the list.
Reported normalized growth values follow for various compounds
Just the number, please, no unit attached.

compound	normalized growth
NS(=O)(=O)c1cc2c(cc1Cl)NC(CSCc1ccccc1)=NS2(=O)=O	0.986
CCCN1CC(CSC)CC2c3cccc4[nH]cc(c34)CC21 (stereo not given)	1.01
O=c1[nH]c2cc(Cl)ccc2c(O)c1-c1ccc(Oc2ccccc2)cc1	1.01
Cc1onc(-c2c(Cl)cccc2Cl)c1NC(=O)O/N=C\c1ccc(N(C)C)cc1	0.861
C=C(C)C1(O)OC(=O)C=C1OC (stereo not given)	1.03

Read the next record carefully.
Exercise: Name the recorded normalized growth of the item NC(Cn1ccc(=O)c(O)c1)C(=O)O (stereo not given) in your answer.
Solution: 1.02

----------
# assayName: chemical genetic growth profiling, strain panel (AID 1159580);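 further: tested at 20 µM; growth read once vehicle control cultures reached saturation at 30 °C; 1 = growth at the plate median or of vehicle wells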
# experimentalContext: S. cerevisiae deletion strains, growth OD, locus YDR150W, strain NUM1, stronger effect = lower value
Hit rate of the full screen: of about 5,500 compounds, about 2,000 (36%) were called active. About 18% were inconclusive and are not listed. This is one part of the list.
Criterion: normalized growth strictly less than 1. Met: 1. Not met: 0.

compound	class
COCc1cc(=O)n2[nH]c(C(C)(C)C)cc2n1	0

Alright, here's another compound for you.
Exercise: I wonder whether CC(C)c1ccc2c(c1)CCC1[C@](C)(CN)CCC[C@]21C (some centres not stated) has normalized growth below 1. Can you tell?
Solution: 1
